# assay protocol: qHTS assay to identify small molecule agonists of the estrogen receptor alpha (ER-alpha) signaling pathway in the presence of an antagonist - cell viability counter screen (AID 1259386);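 also: cells exposed to compounds for 22 h at 37 °C before the viability read; nearly all actives have a fitted effect of over 30% in size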; also: potency is read from the fitted curve at half-maximal effect
# conditions used: VM7Luc4E2 viability, CellTiter-Fluor fluorescence, 22 h; series mostly up to 92.4 µM
Results filed as inconclusive are left out. The source made the active and inactive calls. Calls follow the shape of the dose curve; as a rule, active = well fitted cell-killing curve with a large enough effect in the repeat runs; inconclusive = weak or mixed curves, or effect the other way; inactive = no such curve, though single readings can be large or run the other way.
endpoint label: Potency

{"columns": ["molecule", "endpoint label", "reported measurement"],
 "data": [
  ["C=CC(=O)OCCCCCCOC(=O)C=C", "Potency", "inactive"],
  ["Oc1ccc(Cl)cc1Cc1cc(Cl)ccc1O", "Potency", "43.3 µM (active)"],
  ["CCc1cc(C(C)(C)C)c(O)c(C(C)(C)C)c1", "Potency", "inactive"],
  ["COC(=O)/C=C/c1ccccc1", "Potency", "inactive"],
  ["CC(=O)Nc1ccc(C(=O)CCl)cc1", "Potency", "inactive"],
  ["Clc1ccc2c(c1)C(N1CCNCC1)=Nc1ccccc1O2", "Potency", "inactive"],
  ["CC(C)(C)c1cc(C(C)(C)C)c(O)c(C(C)(C)C)c1", "Potency", "inactive"],
  ["O=C(Cl)c1cccc(C(=O)Cl)c1", "Potency", "inactive"],
  ["CO[Si](OC)(OC)c1ccccc1", "Potency", "inactive"],
  ["CCN(CC)C(=O)Nc1ccc(OCC(O)CNC(C)(C)C)c(C(C)=O)c1 (centres undefined)", "Potency", "inactive"]
]}

Lab note: each molecule below needs its Potency filled in.
1. CC[C@]1(O)C[C@@H]2CN(CCc3c([nH]c4ccccc34)[C@@](C(=O)OC)(c3cc4c(cc3OC)N(C)[C@H]3[C@@](O)(C(=O)OC)[C@H](OC(C)=O)[C@]5(CC)C=CCN6CC[C@]43[C@@H]65)C2)C1
2. O=C(Oc1ccccc1)c1ccccc1O
3. COc1ccc(CCN(C)CCCC(C#N)(c2ccc(OC)c(OC)c2)C(C)C)cc1OC (centres undefined)
4. C/C=C/c1ccc(OCC)c(O)c1

## Result
["10.6 µM (active)", "inactive", "30.6 µM (active)", "inactive"]

Lab note: each molecule below needs its Potency filled in.
1. CCOc1ccc2c(c1)C(C)=CC(C)(C)N2
2. CC[C@@H](N)CO
3. Cc1cccc([N+](=O)[O-])c1C(=O)O
4. CC(C)(C)NC(=O)[C@@H]1CN(Cc2cccnc2)CCN1C[C@@H](O)C[C@@H](Cc1ccccc1)C(=O)N[C@H]1c2ccccc2C[C@H]1O
5. OCCN1CCNCC1

## Result
1: inactive; 2: inactive; 3: inactive; 4: inactive; 5: inactive

---

# assay protocol: qHTS assay for small molecule disruptors of the mitochondrial membrane potential (AID 720635); also: potency is read from the fitted curve at half-maximal effect
# conditions used: HepG2 mitochondrial membrane potential, Mito-MPS dye ratio; series mostly up to 83.2 µM
Inconclusive results are not listed. Active and inactive are the calls of the source. Calls come from the whole dose curve; as a rule, active = well fitted inhibition curve with a large enough effect in the signal ratio in the repeat runs; inconclusive = weak or mixed curves, or effect the other way; inactive = flat fitted curve, though single readings scatter; the % refers to the signal ratio.
endpoint label: Potency

# annotated cases, reported Potency shown
{"columns": ["compound", "reported measurement"],
 "data": [
  ["OCCN1CCNCC1", "inactive"],
  ["Nc1nc(=S)c2[nH]cnc2[nH]1", "inactive"],
  ["O=C1Nc2ccccc2C1(c1ccc(O)cc1)c1ccc(O)cc1", "13.7 µM (active)"],
  ["O=S(=O)(O)c1ccc2nc(-c3ccccc3)[nH]c2c1", "inactive"],
  ["CC(=O)CC(=O)Nc1ccc2[nH]c(=O)[nH]c2c1", "inactive"]
]}

Lab note: each compound below needs its Potency filled in.
1. CCOc1ccc2c(c1)C(C)=CC(C)(C)N2
2. CC(C)(O)CCC(C)(C)O
3. CC(C)(C)NCC(O)c1cc(O)cc(O)c1 (centres undefined)
4. [Cl][In]([Cl])[Cl]
5. OCC(CO)N[C@H]1C[C@](O)(CO)[C@@H](O)[C@H](O)[C@H]1O

## Result
1: inactive; 2: inactive; 3: inactive; 4: inactive; 5: inactive
